- TARGET ENTITY: 5-hydroxytryptamine receptor 2B (Homo sapiens, UniProt P41595)
- Sequence (P41595 whole entry): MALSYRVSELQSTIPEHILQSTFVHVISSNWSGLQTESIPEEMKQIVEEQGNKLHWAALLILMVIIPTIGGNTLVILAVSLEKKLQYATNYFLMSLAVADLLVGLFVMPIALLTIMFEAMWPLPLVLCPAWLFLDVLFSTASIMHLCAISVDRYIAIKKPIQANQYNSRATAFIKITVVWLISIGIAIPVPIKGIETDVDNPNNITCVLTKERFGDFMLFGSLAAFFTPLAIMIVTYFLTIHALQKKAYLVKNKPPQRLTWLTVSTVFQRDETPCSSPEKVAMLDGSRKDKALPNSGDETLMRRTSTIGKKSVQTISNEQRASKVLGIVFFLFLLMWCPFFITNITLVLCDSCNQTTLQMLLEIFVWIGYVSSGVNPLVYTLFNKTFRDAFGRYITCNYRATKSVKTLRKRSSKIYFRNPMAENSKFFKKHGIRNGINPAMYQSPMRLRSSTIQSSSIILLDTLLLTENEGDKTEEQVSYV
- ASSAY DETAILS: Displacement of [3H]-LSD from human 5-HT2B receptor expressed in HEK cells assessed as inhibition constant incubated for 1 hr
- Assay type: cell-based
So basically, if Ki comes in under 200 nM it's 1, and if it's 200 nM or more it's 0.

Below are worked cases with known answers.
SMILES ENTRY	TARGET ENTITY	ANSWER LABEL
NC[C@H]1O[C@@H](n2cnc3c(N[C@H](C4CCC4)C4CC4)nc(I)nc32)[C@H](O)[C@@H]1O	5-hydroxytryptamine receptor 2B (Homo sapiens, UniProt P41595)	1
COc1ccc(SC[C@@]23C[C@@H]2[C@@H](n2cnc4c(NC(C5CCCC5)C5CCCC5)nc(Cl)nc42)[C@H](O)[C@@H]3O)cc1OC	5-hydroxytryptamine receptor 2B (Homo sapiens, UniProt P41595)	0
CCOC(=O)[C@@]12C[C@@H]1[C@@H](n1cnc3c(NC(C4CCCC4)C4CCCC4)nc(Cl)nc31)[C@H](O)[C@@H]2O	5-hydroxytryptamine receptor 2B (Homo sapiens, UniProt P41595)	0
O[C@H]1[C@H](n2cnc3c(NC(C4CCCC4)C4CCCC4)nc(Cl)nc32)[C@H]2C[C@@]2(CSc2ccccc2F)[C@H]1O	5-hydroxytryptamine receptor 2B (Homo sapiens, UniProt P41595)	0
CCOC(=O)[C@@]12C[C@@H]1[C@@H](n1cnc3c(N[C@H](C4CCC4)C4CC4)nc(I)nc31)[C@H](O)[C@@H]2O	5-hydroxytryptamine receptor 2B (Homo sapiens, UniProt P41595)	1
CCCCSC[C@@]12C[C@@H]1[C@@H](n1cnc3c(NC(C4CCCC4)C4CCCC4)nc(Cl)nc31)[C@H](O)[C@@H]2O	5-hydroxytryptamine receptor 2B (Homo sapiens, UniProt P41595)	0

A record lists `CSC[C@@]12C[C@@H]1[C@@H](n1cnc3c(NC(C4CC4)C4CC4)nc(I)nc31)[C@H](O)[C@@H]2O` . Is its Ki below 200 nM?
0

A record lists `Ic1nc(N[C@H](C2CCC2)C2CC2)c2nc[nH]c2n1` . Is its Ki below 200 nM?
0

A record lists `CSC[C@@]12C[C@@H]1[C@@H](n1cnc3c(NC(C4CCCC4)C4CCCC4)nc(SC)nc31)[C@H](O)[C@@H]2O` . Is its Ki below 200 nM?
0

A record lists `CC(C)[C@@H](Nc1nc(I)nc2c1ncn2[C@H]1[C@H](O)[C@H](O)[C@]2(CO)C[C@H]12)C1CC1` . Is its Ki below 200 nM?
1

###

Entries and their Ki
- TARGET ENTITY: Adenosine receptor A3 (Homo sapiens, UniProt P0DMS8)
- Sequence (P0DMS8 whole entry): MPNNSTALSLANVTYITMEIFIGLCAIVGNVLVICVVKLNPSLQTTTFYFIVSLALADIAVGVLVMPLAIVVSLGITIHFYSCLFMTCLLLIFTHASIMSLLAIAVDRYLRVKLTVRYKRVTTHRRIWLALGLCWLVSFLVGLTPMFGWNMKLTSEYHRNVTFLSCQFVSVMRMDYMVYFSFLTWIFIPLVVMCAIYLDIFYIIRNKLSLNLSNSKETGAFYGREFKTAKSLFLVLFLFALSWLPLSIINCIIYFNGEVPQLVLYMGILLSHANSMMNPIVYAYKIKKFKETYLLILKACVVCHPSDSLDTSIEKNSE
Form entry: value (µM) — number only.

In the examples that follow, each entry is paired with its recorded Ki.
SMILES ENTRY	Ki (µM)
CC(C)[C@@H](Nc1nc(I)nc2c1ncn2[C@H]1[C@H](O)[C@H](O)[C@]2(CO)C[C@H]12)C1CC1	11.7
OC[C@@]12C[C@@H]1[C@@H](n1cnc3c(NC(C4CCC4)C4CCC4)nc(I)nc31)[C@H](O)[C@@H]2O	34.3
O[C@H]1[C@H](n2cnc3c(NC(C4CCCC4)C4CCCC4)nc(Cl)nc32)[C@H]2C[C@@]2(CF)[C@H]1O	7.2
O[C@H]1[C@H](n2cnc3c(NC(C4CCCCC4)C4CCCCC4)nc(Cl)nc32)[C@H]2C[C@@]2(CCl)[C@H]1O	9.32
OC[C@@]12C[C@@H]1[C@@H](n1cnc3c(NC(C4CCCCC4)C4CCCCC4)nc(Cl)nc31)[C@H](O)[C@@H]2O	16.6

The recorded Ki with Adenosine receptor A3 (Homo sapiens, UniProt P0DMS8) for `Nc1nc(I)nc2c1ncn2[C@H]1[C@H](O)[C@H](O)[C@]2(CCl)C[C@H]12` was 0.39

The recorded Ki with Adenosine receptor A3 (Homo sapiens, UniProt P0DMS8) for `CSC[C@@]12C[C@@H]1[C@@H](n1cnc3c(NC(C4CCCC4)C4CCCC4)nc(Cl)nc31)[C@H](O)[C@@H]2O` was 5.27

The recorded Ki with Adenosine receptor A3 (Homo sapiens, UniProt P0DMS8) for `O[C@H]1[C@H](n2cnc3c(NC(C4CCCC4)C4CCCC4)nc(Cl)nc32)[C@H]2C[C@@]2(CCl)[C@H]1O` was 8.26
